System: Pseudomonas aeruginosa
Experiment notes: Antibacterial activity against Pseudomonas aeruginosa ATCC 9027 after 24 hr by MTT assay
Type: functional
Measurement setup: ATCC 9027, 24 h
Metric: MIC

Past entries and their recorded results:
O=C(Cc1ccc(O)cc1)NCC(=O)Nc1ccc([N+](=O)[O-])cc1 :: 134 µM
COc1ccc(NC(=O)CNC(=O)Cc2ccccc2O)cc1 :: > 160 µM
COc1ccc(NC(=O)CNC(=O)Cc2cccc(O)c2)cc1 :: > 160 µM

# map each compound to its MIC
1. Cc1ccc(NC(=O)CNC(=O)Cc2cccc(Cl)c2)cc1
2. COc1ccc(NC(=O)CNC(=O)Cc2cccc(Cl)c2)cc1
3. O=C(Cc1ccccc1)NCC(=O)Nc1cccc([N+](=O)[O-])c1
4. O=C(Cc1ccccc1)NCC(=O)Nc1ccc(Cl)cc1
5. O=C(Cc1ccccc1)NCC(=O)Nc1ccccc1
6. O=C(Cc1ccc(Cl)cc1)NCC(=O)Nc1cc(Cl)cc(Cl)c1
7. O=C(Cc1ccccc1)NCC(=O)Nc1ccccc1Cl
8. COc1ccc(NC(=O)CNC(=O)Cc2ccc(OC)c(OC)c2)cc1

Ans.
1: > 160 µM; 2: > 160 µM; 3: > 160 µM; 4: > 160 µM; 5: > 160 µM; 6: > 160 µM; 7: > 160 µM; 8: > 160 µM

----------
Assign MIC to each entry below.
Tested on: Pseudomonas aeruginosa
Experiment notes: Antibacterial activity against Pseudomonas aeruginosa ATCC 9027 after 24 hr by MTT assay
Type: functional
Measurement setup: ATCC 9027, 24 h

COc1ccc(CC(=O)NCC(=O)Nc2ccc([N+](=O)[O-])cc2)cc1OC :: > 160 µM
O=C(Cc1ccccc1)NCC(=O)Nc1cccc(Cl)c1 :: > 160 µM
COc1ccc(NC(=O)CNC(=O)Cc2ccccc2)cc1OC :: > 160 µM

# map each compound to its MIC
1. Cc1ccc(CC(=O)NCC(=O)Nc2ccc([N+](=O)[O-])cc2)cc1
2. COc1ccc(NC(=O)CNC(=O)Cc2ccc(O)cc2)cc1
3. O=C(Cc1cccc(Br)c1)NCC(=O)Nc1ccc(Br)cc1
4. COc1ccc(NC(=O)CNC(=O)Cc2ccc(F)cc2)cc1
5. O=C(Cc1ccccc1Cl)NCC(=O)Nc1ccc([N+](=O)[O-])cc1
6. NC[C@H]1O[C@H](O[C@H]2[C@H](O)[C@@H](O[C@H]3O[C@H](CO)[C@@H](O)[C@H](N)[C@H]3O)[C@H](N)C[C@@H]2N)[C@H](O)[C@@H](O)[C@@H]1O

Ans.
1: > 160 µM; 2: > 160 µM; 3: > 160 µM; 4: > 160 µM; 5: 34 µM; 6: 7.16 µM

# map each compound to its MIC
1. O=C(Cc1ccccc1)NCC(=O)Nc1cc(F)cc(F)c1
2. O=C(Cc1cccc(Cl)c1)NCC(=O)Nc1ccc(Br)cc1
3. COc1ccc(NC(=O)CNC(=O)Cc2ccc(Cl)cc2)cc1
4. COc1ccc(NC(=O)CNC(=O)Cc2ccccc2)cc1

Ans.
148 µM
96.1 µM
> 160 µM
> 160 µM

# map each compound to its MIC
1. O=C(Cc1ccccc1)NCC(=O)Nc1cc(Cl)cc(Cl)c1
2. O=C(Cc1ccccc1)NCC(=O)Nc1ccc([N+](=O)[O-])cc1
3. COc1ccc(NC(=O)CNC(=O)Cc2ccccc2Cl)cc1
4. O=C(Cc1cccc(Cl)c1)NCC(=O)Nc1ccc([N+](=O)[O-])cc1
5. O=C(Cc1ccccc1Cl)NCC(=O)Nc1ccc(Br)cc1

Ans.
1. > 160 µM
2. 18.2 µM
3. > 160 µM
4. 10.1 µM
5. > 160 µM

----------
Assign MIC to each entry below.
Test system: Pseudomonas aeruginosa
Experiment notes: Antibacterial activity against Pseudomonas aeruginosa ATCC 9027 after 24 hr by MTT assay
Format: functional
Measurement setup: ATCC 9027, 24 h
Numbers only, in µM.

Past entries and their recorded results:
O=C(Cc1cccc(O)c1)NCC(=O)Nc1ccc([N+](=O)[O-])cc1 :: 72
O=C(Cc1ccc(F)cc1)NCC(=O)Nc1ccc([N+](=O)[O-])cc1 :: 65.6

Consider the additional molecule presented here.
Sure, the documented MIC for O=C(Cc1cccc(F)c1)NCC(=O)Nc1ccc([N+](=O)[O-])cc1 is 18.2

These entries and their values trace back to ChEMBL document CHEMBL3621174.
